Tested on: SNB-19 CNS
Classes to choose from: Yes for active, No for inactive

I'd appreciate the recorded outcome for CCNC(=O)C#CC(=O)NCC from this test.
No

Which outcome was assigned to NC(=O)c1cc(Br)cc(C2CCCCC2)c1O in this test?
No

Check the results log: what was the call for C=C1C(=O)O[C@H]2[C@H]1CC/C(COC(=O)NCc1ccc(Cn3c(=O)sn(CCCCl)c3=O)cc1)=C\CC[C@@]1(C)O[C@@H]21 ?
No

// return assay outcome for O=C(Nc1ccc(Cl)cc1)c1ccc(NC2=C(Cl)C(=O)N(Cc3ccccc3)C2=O)cc1
No

Hey, what did the test say about CC1=C[C@H]2c3c(c(O)c(O)c4oc5ccccc5c(=O)c34)[C@H](c3cc(O)c(O)c4oc5ccccc5c(=O)c34)[C@H]2C(C)(C)C1 ?
No

Write down the call the test reported for this molecule. Item: NNc1cccc(/C=C/c2ccccc2)cc1=O
No

Fill in: this test's call for Cn1ncc2c(N)nc(N3CCCCC3)nc21 is ___
No

Just curious, what result did CC(=O)O[C@H]1CC[C@@]2(C)C(=CC[C@H]3[C@@H]4C/C(=C\c5cccc(OCCN6CCOCC6)c5)[C@H](OC(C)=O)[C@@]4(C)CC[C@@H]32)C1 get here?
No

I'd appreciate the recorded outcome for COc1ccc(/C=C/c2nc(NCCCN(C)C)c3ccccc3n2)cc1 from this test.
No

Entry Cc1sc(C)c(Cc2c(C)sc(C)c2CCl)c1CCl : call = ?
No

What did the test return for COc1ccccc1NC(=O)n1nc(N)c2ccccc21 ?
No

Hi, do you know how O=[N+]([O-])c1ccc(N/N=C/c2c(O)ccc3ccccc23)nc1 came out in this test?
No

Which outcome did this test record for the molecule COc1cc2c3c(c1)c1cc(OC)c(OC)cc1c[n+]3CC2 ?
No

Write down the call the test reported for this molecule. Item: CC(C)=CC(=O)O[C@H]1C(=O)O[C@@H]2C[C@H]3[C@H](C)C(=O)C(O[C@@H]4O[C@H](CO)[C@@H](O)[C@H](O)[C@H]4O)=C[C@]3(C)[C@H]3[C@@H](O)[C@H](O)[C@]4(C(=O)O)OC[C@]32[C@@H]14
No

Tell me the assay call for COC1CC2C=C(C)/C=C/C=C/C(=O)NC(c3ccccc3)C/C=C/CCC(O)CC(=O)C2=C1O (stereo not given) please.
Yes
